B1: RTP4 (parent)
chain: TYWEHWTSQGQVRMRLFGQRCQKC

variants of: B1; assay: protein stability index of a GFP-peptide fusion (GPS, HEK-293T) (PSI 1-6); higher = more stable; conditions: c terminus: a fixed tail appended;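 also: lentivirally expressed fusions sorted by FACS into six bins by GFP to DsRed ratio, PSI derived from sequencing read proportions per bin multiplied by bin number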
Each entry gets 0 if its protein stability index stays under 2, and 1 if its protein stability index is 2 or above.

Variant Key | Label Class
W6S | 1
Q19V | 1
Q11M | 1
F17N | 1
T1S | 1
F17C | 1
T7D | 0
Y2T | 1
C21P | 1
S8K | 1
K23R | 0
H5P | 1
C24W | 0
L16Y | 1
R15K | 1
L16C | 1
V12A | 0
M14S | 0
L16S | 0
E4C | 0
T7C | 1
